- assay: NCI Yeast Anticancer Drug Screen. Data for the wt2 strain (AID 169);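 note: 0% = growth of vehicle-treated yeast cultures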
- cond: S. cerevisiae wt2 strain growth inhibition; at 11.0 µM
The panel holds about 79,000 compounds, 15% with a hit somewhere; the sample as a whole holds those more often. Calls of active or inactive are those of the source. Cut-off read from the data, not from the text of the source: active = growth inhibition above about 70%; inactive = the rest.
Select the correct class. Options are True = active, False = inactive and nothing else.

Asked: Hello, I am checking results. What call was entered for `CO[C@H](/C(C)=C/C=C/C(C)=C/c1coc(C)n1)[C@H](C)[C@H]1C[C@@H](O)[C@@]2(C)O[C@H]2/C=C/[C@@H](C)[C@@H]2C[C@@H](CC(=O)O2)C[C@H]2O[C@@H]2C(=O)O1` ?
Given back: False

Asked: Hello, I am checking results. What call was entered for `Oc1ccc(Cl)cc1Cc1ccccc1` ?
Given back: False

Asked: Hello, I am checking results. What call was entered for `O=P(CCCCP(=O)(c1ccccc1)c1ccccc1)(c1ccccc1)c1ccccc1.[Cl][Sn]([Cl])([c]1ccccc1)[c]1ccccc1` ?
Given back: False

Asked: Hello, I am checking results. What call was entered for `Cc1nc2ccccc2cc1C[N+]12CN3CN(CN(C3)C1)C2` ?
Given back: False

Asked: Hello, I am checking results. What call was entered for `CCc1cccc(C(C)C)c1NC1=C([n+]2ccc(C)cc2)C(=O)c2ccccc2C1=O` ?
Given back: False

Asked: Hello, I am checking results. What call was entered for `CN(C)CCSC1=Nc2ccc(Cl)cc2C(c2ccccc2Cl)=NC1` ?
Given back: False

Asked: Hello, I am checking results. What call was entered for `O=C(NNC(=O)OCC(Cl)(Cl)Cl)OCC(Cl)(Cl)Cl` ?
Given back: False

Asked: Hello, I am checking results. What call was entered for `CCCCCCCCCC[Se]C#N` ?
Given back: False

Asked: Hello, I am checking results. What call was entered for `NCCc1ccc(OCc2ccccc2)c(OCc2ccccc2)c1` ?
Given back: False

Asked: Hello, I am checking results. What call was entered for `Cc1ccc2c(c1N)C(=O)c1ccccc1C2=O` ?
Given back: False

Asked: Hello, I am checking results. What call was entered for `O=C1C=CC(=O)C1(Br)Br` ?
Given back: False

Asked: Hello, I am checking results. What call was entered for `CN(CCc1ccc(Br)cc1)CCN1CCCCC1` ?
Given back: False

Asked: Hello, I am checking results. What call was entered for C[CH2][Sn]1([CH2]C)[O]C2C(O)OC(CO)C(O)C2[O]1 (stereo not drawn) ?
Given back: False

Asked: Hello, I am checking results. What call was entered for `CN(C)CCC(C(=O)C(Br)Br)(c1ccccc1)c1ccccc1` ?
Given back: True

Asked: Hello, I am checking results. What call was entered for CC1(Cl)CC(C)(/C=C/Cl)C(Cl)CC1Cl (stereo not drawn) ?
Given back: False

Asked: Hello, I am checking results. What call was entered for `CCN(CCCl)c1cc(CN(C)C)cc(NC(=O)c2ccc(C(=O)Nc3cc(CN(C)C)cc(N(CC)CCCl)c3)cc2)c1` ?
Given back: False

Asked: Hello, I am checking results. What call was entered for `Cc1ccc2nc3sc(=O)sc3nc2c1` ?
Given back: True

Asked: Hello, I am checking results. What call was entered for CCOP(=O)(CC(C)P(=O)(OCC)OCC)OCC.C[CH2][Sn]([Cl])([Cl])[CH2]C (stereo not drawn) ?
Given back: False

Asked: Hello, I am checking results. What call was entered for `c1c(N2CCOCC2)ssc1=[N+]1CCOCC1` ?
Given back: False

Asked: Hello, I am checking results. What call was entered for `Cc1c2ccccc2cc2ccccc12` ?
Given back: False

Asked: Hello, I am checking results. What call was entered for `C[CH2][Sn]([CH2]C)([O]S(C)(=O)=O)[O]S(C)(=O)=O` ?
Given back: False

Asked: Hello, I am checking results. What call was entered for `CNC(=O)ON(C(C)=O)C(=O)NC` ?
Given back: False

Asked: Hello, I am checking results. What call was entered for O=[N+]([O-])O.[NH-]C1CCCCC1[NH-].[NH-]C1CCCCC1[NH-].[NH-]C1CCCCC1[NH-].[OH-].[OH-].[OH-].[Pt+4].[Pt+4].[Pt+4] (stereo not drawn) ?
Given back: False

Asked: Hello, I am checking results. What call was entered for CCCCCCCCCCCCCCCCP(=O)(O)OCC(N)C(=O)O (stereo not drawn) ?
Given back: False

Asked: Hello, I am checking results. What call was entered for `BrCC[N+]12CC[N+](CCBr)(CC1)C2` ?
Given back: False

Asked: Hello, I am checking results. What call was entered for `C=CC[N+]12CN3CN(CN(C3)C1)C2` ?
Given back: False

Asked: Hello, I am checking results. What call was entered for COC1C(O)C(C)OC(OC2C(Oc3cccc4c(O)c5c(=O)oc6ccc(C)c7c(=O)oc(c34)c5c67)OC(C)C(O)C2O)C1O (stereo not drawn) ?
Given back: False

Asked: Hello, I am checking results. What call was entered for `CC[C@@]1(O)C(=O)OCc2c1cc1n(c2=O)Cc2cc3ccccc3nc2-1` ?
Given back: True

Asked: Hello, I am checking results. What call was entered for `Oc1c(Br)cc(Br)cc1Br` ?
Given back: False

Asked: Hello, I am checking results. What call was entered for `[O-][n+]1c2cccc(O)c2[n+]([O-])c2cccc(O)c21` ?
Given back: False

Asked: Hello, I am checking results. What call was entered for `Nc1ccccc1C(=O)OCCc1ccccc1` ?
Given back: False

Asked: Hello, I am checking results. What call was entered for `C[C@]12CC[C@H](O)CC1=CC[C@@H]1[C@@H]2CC[C@]2(C)C(=O)CC[C@@H]12` ?
Given back: False

Asked: Hello, I am checking results. What call was entered for `Nc1nc(-c2ccccc2)c(-c2ccccc2)[se]1` ?
Given back: False

Asked: Hello, I am checking results. What call was entered for O=C1OC2C(O1)C1(Cl)C(Cl)=C(Cl)C2(Cl)C1(Cl)Cl (stereo not drawn) ?
Given back: False

Asked: Hello, I am checking results. What call was entered for `O=[N+]([O-])c1ccc(N2CCC(CCCC3CCN(c4ccc([N+](=O)[O-])cc4[N+](=O)[O-])CC3)CC2)c([N+](=O)[O-])c1` ?
Given back: False

Asked: Hello, I am checking results. What call was entered for C[N+]1(CCCl)CC[N+](C)(CCCl)CC1 (stereo not drawn) ?
Given back: False

Asked: Hello, I am checking results. What call was entered for `O=C(COc1ccc(Cl)cc1Cl)NO` ?
Given back: False

Asked: Hello, I am checking results. What call was entered for `Cn1cc(NC(=O)c2cc(NC(=O)CN=C(N)N)cn2C)cc1C(=O)NCCC(=N)N` ?
Given back: False

Asked: Hello, I am checking results. What call was entered for CC1CCC2(NC1)OC1CC3C4CCC5CC(OC6OC(CO)C(OC7OC(CO)C(O)C(OC8OCC(O)C(O)C8O)C7OC7OC(CO)C(O)C(O)C7O)C(O)C6O)CCC5(C)C4CCC3(C)C1C2C (stereo not drawn) ?
Given back: False

Asked: Hello, I am checking results. What call was entered for `Oc1cccc2cccnc12` ?
Given back: True

Asked: Hello, I am checking results. What call was entered for O=C1c2ccccc2C(=O)C(Cl)C1Cl (stereo not drawn) ?
Given back: True

Asked: Hello, I am checking results. What call was entered for `COC(=O)C1=C(C(=O)OC)SC2(S1)C(C(=O)OC)=C(C(=O)OC)Sc1c2ssc1=O` ?
Given back: True

Asked: Hello, I am checking results. What call was entered for `Nc1nc(N)c(-c2ccc(Cl)c(Cl)c2)c(CP(Cl)(Cl)(Cl)Br)n1` ?
Given back: False

###

- assay: NCI Yeast Anticancer Drug Screen. Data for the bub3 strain (AID 167)
- cond: S. cerevisiae bub3 mutant strain, at 50.0 µM (retest, dose inferred, filed as 5.0), active compounds read high
The panel holds about 79,000 compounds, 15% with a hit somewhere; the sample as a whole holds those more often. Activity calls are given as the source filed them. No stated cut-off is given here; in the data, active means growth inhibition above about 70%; inactive means the rest.
Exercise: state measured growth inhibition for each of the compounds provided.

Lab note: CC(Br)CN1CCOCC1 (centres undefined) gave growth inhibition of 36% (inactive)

Lab note: `O=C(COc1ccc(Cl)c(Cl)c1)N(Cc1ccccc1)Cc1ccc[n+](Cc2ccc(Cl)cc2S(=O)(=O)F)c1` gave growth inhibition of 82% (active)

Lab note: CS(=O)(=O)[O-].CS(=O)(=O)[O-].NC1CCCCC1N.[Pt+4] (centres undefined) gave growth inhibition of 99% (active)

Lab note: `CC[N+](C)(CC)CCNC(=O)C(O)(c1ccccc1)c1ccccc1` gave growth inhibition of 23% (inactive)

Lab note: COC(=O)C1=C(C)N2CCSC2(C)C(C(=O)OC)C1c1cccc(Cl)c1 (centres undefined) gave growth inhibition of 89% (active)

Lab note: `CC(=O)[O-].[Zn].c1ccc(/C(=N\Nc2ccccn2)c2ccccn2)cc1` gave growth inhibition of 86% (active)

Lab note: CCCCC(CC)CNP(=S)(NCC(CC)CCCC)NCC(CC)CCCC (centres undefined) gave growth inhibition of 37% (inactive)

Lab note: CC(=O)[CH-]C(=O)c1ccccc1.CC(=O)[CH-]C(=O)c1ccccc1.C[C@]12CCC(=O)C=C1CC[C@@H]1C2CC[C@@]2(C)C1CC[C@@H]2[O-].C[C@]12CCC(=O)C=C1CC[C@@H]1C2CC[C@@]2(C)C1CC[C@@H]2[O-].Cl.[Ti+4] (some centres undefined) gave growth inhibition of 86% (active)

Lab note: `C[C@]12CC[C@H](O)CC1=CC[C@@H]1[C@@H]2CC[C@]2(C)C(=O)CC[C@@H]12` gave growth inhibition of 78% (active)
